Where these numbers come from: ChEMBL document CHEMBL1201862

# Tested on: ACHN
# Test Details: NCI tumour cell line growth inhibition, 48 h
Active and inactive are the calls of the source. Cut-off read from the data, not from the text of the source: active = GI50 up to about 1.1 µM and inactive = higher.
Listed here: items and their measured GI50.
Measure: GI50

>>> result("COc1ccccc1N1C(=O)CSC1c1c[nH]c2ccccc12 (stereo not given)")
"> 100 µM (inactive)"
>>> result("O=C(N/N=C1\\CCc2ccccc21)N/N=C1\\CCc2ccccc21")
"> 100 µM (inactive)"
>>> result("CC[C@@]1(O)C(=O)OCc2c1cc1n(c2=O)Cc2c-1nc1ccccc1c2/C=N/NC(=O)c1ccc(N)cc1")
"0.0244 µM (active)"
>>> result("CC/C=C1\\N=C(c2ccc(Cl)cc2)OC1=O")
"> 100 µM (inactive)"
>>> result("CC(C)CCc1n[nH]c(=O)n1/N=C\\c1ccccc1")
"> 100 µM (inactive)"
>>> result("COc1ccc(-c2oc3c(OC)c(OC)c(OC)c(OC)c3c(=O)c2OC)cc1OC")
"33.5 µM (inactive)"
>>> result("COc1cc2c(cc1OC)CN1CCCc3cc(OC)c(OC)cc3C1C2 (stereo not given)")
"34.1 µM (inactive)"
>>> result("CC(C)c1c(O[Si](C(C)C)(C(C)C)C(C)C)cc2c(c1O)CC[C@H]1C(C)(C)CCC[C@]21C")
"> 100 µM (inactive)"
>>> result("COC(OC)(c1ccccc1)C(I)I")
"16.5 µM (inactive)"
>>> result("O=C(N/N=C/c1cc(Cl)cc(Cl)c1O)c1ccccc1O")
"0.447 µM (active)"

* * *

Each record here notes measured GI50.
# System: EKVX
# Test Details: NCI tumour cell line growth inhibition, 48 h
Active and inactive are the calls of the source. No stated cut-off is given here; in the data, active = GI50 up to about 1.1 µM and inactive = higher. Peptide text beside a SMILES is read from it.
Measure: GI50

>>> result("O=C(NC(O)(C(F)(F)F)C(F)(F)F)c1ccccc1")
"> 100 µM (inactive)"
>>> result("O=C(O)c1ccc(Nc2nc3ccc(C(F)(F)F)cc3nc2C(=O)O)cc1")
"> 100 µM (inactive)"
>>> result("CC(C)(C)OC(=O)NC1CCC[C@H]1O (stereo partly specified)")
"> 100 µM (inactive)"
>>> result("O=C(CCCCCCCCC(=O)N1C(=O)CC(=O)N(c2cccc(Cl)c2)C1=S)N1C(=O)CC(=O)N(c2cccc(Cl)c2)C1=S")
"38.3 µM (inactive)"
>>> result("O=Cc1cn(S(=O)(=O)c2ccccc2)c2ccccc12")
"> 100 µM (inactive)"
>>> result("Cc1nc2ccccc2c(=O)n1NC(=O)c1ccc(N)cc1")
"> 100 µM (inactive)"
>>> result("CC(C)CC(NC(=O)C(CC(C)C)NC(=O)C(Cc1c[nH]cn1)NC(=O)C(C)NC(=O)C(NC(=O)C(C)NC(=O)C(Cc1c[nH]c2ccccc12)NC(=O)C(CCC(=O)O)NC(=O)C(N)Cc1ccccc1)C(C)C)C(N)=O (stereo unspecified) (H-FEWAVAHLL-NH2; configuration not given here)")
"> 12.5 µM (inactive)"
>>> result("CCCCn1c(-c2ccccc2)cs/c1=N\\NC(=O)Cn1c(C)nc2ccccc21")
"47.1 µM (inactive)"
>>> result("COC(=O)C1=C(C)NC(C)=C(C(=O)OC)C1c1nc2sccn2c1[N+](=O)[O-]")
"96.4 µM (inactive)"
>>> result("O=C1CSC(=S)N1c1ccc(F)cc1F")
"94.8 µM (inactive)"
>>> result("CCCCc1c2c(nc3c1CC/C(=C\\c1ccc([N+](=O)[O-])cc1)C3=O)CCCC2")
"11.4 µM (inactive)"

* * *

# System: MDA-N
# Test Details: NCI tumour cell line growth inhibition, 48 h
The source made the active and inactive calls. Cut-off read from the data, not from the text of the source: active = GI50 up to about 1.1 µM and inactive = higher.
Measure: GI50

>>> result("Nc1nc(S)c2c(N)n[nH]c2c1C(=O)Nc1ccc(Cl)cc1")
"89.7 µM (inactive)"
>>> result("N=C(N)SCc1cccc(-c2nc3ccccc3c(=O)o2)c1")
"> 100 µM (inactive)"
>>> result("CN(CCCNC(=O)c1cc(-c2ccccc2)nc2ccccc12)CCCNC(=O)c1cc(-c2ccccc2)nc2ccccc12")
"1.8 µM (inactive)"
>>> result("O=C(/C=C\\c1ccccc1)Oc1ccc(/C=C2\\CCC/C(=C\\c3ccc(OC(=O)/C=C\\c4ccccc4)cc3)C2=O)cc1")
"> 100 µM (inactive)"
>>> result("COC[C@@H](/N=C/c1ccc([N+](=O)[O-])cc1)C(C)C")
"29.4 µM (inactive)"
>>> result("CCCCC(=O)OC[n+]1ccc(-c2c(COC(=O)NC(C)C)c(COC(=O)NC(C)C)c3n2CCC3)cc1")
"> 100 µM (inactive)"
>>> result("O=S1OC[C@H](CCCl)O1 (stereo partly specified)")
"> 100 µM (inactive)"
>>> result("CCOP1(=O)OCC2OC(n3cnc4c(N)ncnc43)C(O)C2O1.c1ccccc1 (stereo unspecified)")
"> 100 µM (inactive)"
>>> result("CCC1(c2ccc(N3C(=O)c4cc(OC)c(OC)cc4C3=O)cc2)CCC(=O)NC1=O (stereo unspecified)")
"> 10 µM (inactive)"
>>> result("CC(C)OC(=O)C1=C2c3ncccc3C(=O)N2[C@@H](Cl)[C@@H](Cl)[C@@H]1Cl")
"74.1 µM (inactive)"
>>> result("Nc1cc2c(nnn2C2OC(COCc3ccccc3)C(OCc3ccccc3)C2OCc2ccccc2)c(=O)[nH]1 (stereo unspecified)")
"10.2 µM (inactive)"
>>> result("CCOC(=O)C(C(=O)OCC)C(NC(=O)Nc1cc(C(F)(F)F)ccc1OC)(C(F)(F)F)C(F)(F)F")
"33.2 µM (inactive)"
>>> result("O=C1c2ccccc2C(C2c3ccccc3C(=O)c3cc(Br)ccc32)c2ccc(Br)cc21 (stereo unspecified)")
"> 100 µM (inactive)"
>>> result("Nc1ncnc2c1nc(O)n2-c1ccccc1")
"> 100 µM (inactive)"
>>> result("CN(C(=O)Cc1ccc(Cl)c(Cl)c1)[C@H]1CCCC[C@@H]1[N+]1(C)CCCC1")
"> 100 µM (inactive)"
>>> result("O=C(/C=C/c1ccccc1Br)c1ccccc1")
"6.71 µM (inactive)"
>>> result("CN(C)/N=C1/CCC(C(F)(F)F)(C(F)(F)F)O1")
"48.3 µM (inactive)"
>>> result("O=S(=O)(O)c1cc(Nc2ccnc3ccccc23)c2c(S(=O)(=O)O)cc(S(=O)(=O)O)cc2c1")
"> 100 µM (inactive)"
>>> result("O=C1C2=Nc3ccccc3C(O)N2c2ccccc21 (stereo unspecified)")
"1.84 µM (inactive)"
>>> result("c1ccc2c3c([nH]c2c1)C1CCCN1CC3 (stereo unspecified)")
"> 10 µM (inactive)"
>>> result("CCOC(=O)/C(C(=S)NC)=C(/N)N1CCCC1")
"> 100 µM (inactive)"

* * *

# System: M14
# Test Details: NCI tumour cell line growth inhibition, 48 h
The source made the active and inactive calls. Cut-off read from the data, not from the text of the source: active = GI50 up to about 1.1 µM and inactive = higher.
Possible outcomes: TRUE for active, FALSE for inactive

>>> label("Nc1nc(S)c2c(N)n[nH]c2c1C(=O)Nc1ccc(Cl)cc1")
"FALSE"
>>> label("Cc1cc(NC(=O)NC(=O)c2ccccc2N)ccc1Oc1ncc(Br)cn1")
"TRUE"
>>> label("COc1ccc(C(c2c(O)c3ccccc3n(C)c2=O)c2c(O)c3ccccc3n(C)c2=O)cc1")
"FALSE"
>>> label("O=C(O)CCN(CCCCN(CCC(=O)O)CCC(=O)O)CCC(=O)O")
"FALSE"
>>> label("O=C(Nc1ccc(Cl)cc1)c1cc([N+](=O)[O-])ccc1O")
"FALSE"
>>> label("CN(C(=O)Cc1ccc(Cl)c(Cl)c1)[C@H]1CCCC[C@@H]1[N+]1(C)CCCC1")
"FALSE"

* * *

# Tested on: MOLT-4
# Test Details: NCI tumour cell line growth inhibition, 48 h
Calls of active or inactive are those of the source. Cut-off read from the data, not from the text of the source: active = GI50 up to about 1.1 µM and inactive = higher.
Possible outcomes: YES (active), NO (inactive)

>>> label("CC(C)(C)OC(=O)NC(Cc1c[nH]cn1)C(=O)N1CCCC1C(N)=O (stereo not given)")
"NO"
>>> label("COc1ccc2c3c(c(C(=O)c4ccccc4)oc13)CCC2")
"NO"
>>> label("COc1cc2nc(-c3ccccc3)cc(O)c2cc1OC")
"NO"
>>> label("O=C(OCc1ccccc1)N(CCCCN(CCCNCc1ccccc1)C(=O)OCc1ccccc1)CCCNCc1ccccc1")
"YES"
>>> label("CCC1(c2ccc(N3C(=O)c4cc(OC)c(OC)cc4C3=O)cc2)CCC(=O)NC1=O (stereo not given)")
"NO"
>>> label("COc1ccc2cc(NC(=O)Nn3cnnc3)ccc2c1")
"NO"
>>> label("COc1ccc(/N=c2/[nH]c(N)c(C(=O)c3ccc(OC)cc3)s2)cc1")
"YES"
>>> label("c1ccc(CN2CCC(CNc3ncnc4ccccc34)C2)cc1 (stereo not given)")
"NO"
>>> label("CC1CC2CC(=O)CC3(C1)C2CCCN3CCCO (stereo not given)")
"NO"
>>> label("COc1c(C)cc2c(c1O)C1NC(C2)[C@H](O)N2C3COC(=O)[C@@]4(CS[C@@H](c5c(OC(C)=O)c(C)c6c(c53)OCO6)C12)NCCC1=C4NC2C=CC=CC12 (stereo not given in full)")
"YES"
